Target: UniProtKB A3KMY8
Sequence (A3KMY8 24-652): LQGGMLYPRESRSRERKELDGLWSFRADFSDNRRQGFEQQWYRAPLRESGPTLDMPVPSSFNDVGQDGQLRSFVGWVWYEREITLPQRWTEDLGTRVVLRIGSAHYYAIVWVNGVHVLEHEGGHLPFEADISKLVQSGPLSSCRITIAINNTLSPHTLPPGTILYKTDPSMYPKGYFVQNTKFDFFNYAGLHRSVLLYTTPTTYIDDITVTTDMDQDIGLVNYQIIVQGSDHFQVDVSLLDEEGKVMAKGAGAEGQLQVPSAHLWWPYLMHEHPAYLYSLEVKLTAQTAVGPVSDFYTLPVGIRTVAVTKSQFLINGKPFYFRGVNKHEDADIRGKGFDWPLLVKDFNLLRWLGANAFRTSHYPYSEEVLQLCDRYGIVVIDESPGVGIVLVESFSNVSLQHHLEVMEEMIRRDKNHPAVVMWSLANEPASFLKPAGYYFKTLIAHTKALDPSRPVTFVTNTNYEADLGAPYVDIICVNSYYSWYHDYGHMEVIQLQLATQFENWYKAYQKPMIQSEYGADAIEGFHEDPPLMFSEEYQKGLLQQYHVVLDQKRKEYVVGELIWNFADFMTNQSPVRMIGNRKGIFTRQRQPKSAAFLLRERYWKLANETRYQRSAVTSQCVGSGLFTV
measured-quantity: pIC50
One number for each entry, as −log10 of the molar value.

Noted for C[C@@H]1CC2=CC(=O)CC[C@@H]2[C@H]2CC[C@@]3(C)[C@@H](CC[C@]3(C)O)[C@@H]21 [Compound 1, reference compound] : its pIC50 reads 4.37

====

Test system: HeLa cancer cell line (human cervical carcinoma)
Assay: MTT cytotoxicity assay, HeLa
Format: cell-based
Settings: Homo sapiens, HeLa, 24 h, 24 hours treatment, read-out: HeLa Cell line IC50 ± SD
pIC50: −log10 of the molar value.
// class 0 strictly below 4 in pIC50; class 1 otherwise

Completed entries (count: 3):
• CC1CC2=CC(=O)CCC2C2C(O)CC3(C)C(CCC3(C)O)C12 (centres unmarked) = class 1
• CC1C(O)C2=CC(=O)CCC2(O)C2CCC3(C)C(CCC3(C)O)C12 (centres unmarked) = class 0
• C[C@@H]1CC2=CC(=O)CC[C@@H]2[C@H]2CC[C@@]3(C)[C@@H](CC[C@]3(C)O)[C@@H]21 [Compound 1, reference compound] = class 1

Please look at the following compound next.
Exam item: decide whether the reported pIC50 for CC1CC2=CC(=O)CCC2(O)C2CCC3(C)C(CCC3(C)O)C12 (centres unmarked) is at least 4.
class 1

====

System: Leishmania major promastigotes
Assay: leishmanicidal activity assay (72 h, microscopic counting)
Type: cell-based
Details: Leishmania major; L. major promastigotes, 72 h at 21–22°C; read-out: Leishmanicidal activity IC50 ± SD
measured-quantity: pIC50
Give bare numbers, as −log10 of the molar value.

Noted for N=C(N)c1ccc(OCCCCCOc2ccc(C(=N)N)cc2)cc1 [Pentamidine, reference compound] : its pIC50 reads 5.29

====

Tested on: Leishmania major promastigotes
Test: leishmanicidal activity assay (72 h, microscopic counting)
Type: cell-based
Details: Leishmania major, 72 h, read-out: Leishmanicidal activity IC50 ± SD
Answer each item with its documented pIC50.
Answers are plain numbers, as −log10 of the molar value.

For orientation, consider the following solved cases.
- C[C@@H]1[C@H](O)[C@@H](C)/C=C/C=C/C=C/C=C/C=C/C=C/C=C/[C@H](O[C@@H]2O[C@H](C)[C@@H](O)[C@H](N)[C@@H]2O)C[C@@H]2O[C@](O)(C[C@@H](O)C[C@@H](O)[C@H](O)CC[C@@H](O)C[C@@H](O)CC(=O)O[C@H]1C)C[C@H](O)[C@H]2C(=O)O [Amphotericin B, reference compound]: 6.54
- C[C@H]1[C@@H]2[C@H](CC[C@@]3(C)[C@H]2CC[C@]3(C)O)[C@H]2CCC(=O)C=C2[C@@H]1O: 4.10
- CC1CC2=CC(=O)CCC2C2C(O)CC3(C)C(CCC3(C)O)C12 (stereo not shown): 4.15

Measured pIC50 for this entry C[C@@H]1CC2=CC(=O)CC[C@@H]2[C@H]2CC[C@@]3(C)[C@@H](CC[C@]3(C)O)[C@@H]21 [Compound 1, reference compound] on Leishmania major promastigotes: 4.53
